Ps resistance to individual antibiotics and antibiotic combinations, Biofilm reference
Tested on: Pseudomonas aeruginosa (Ps) biofilm
ASSAY_PROTOCOL: MBEC assay, Ps biofilms (Example 5)
Format: cell-based
CONDITIONS_USED: number of resistant isolates; 12 isolates from Cystic Fibrosis patients; exposed 24 hours
Respond numerically, and do not add a unit to the figure.

Here is how some molecules turned out for Ps resistance to individual antibiotics and antibiotic combinations, Biofilm.
[
  {
    "MOLECULE": "NCC[C@H](O)C(=O)N[C@@H]1C[C@H](N)[C@@H](O[C@H]2O[C@H](CN)[C@@H](O)[C@H](O)[C@H]2O)[C@H](O)[C@H]1O[C@H]1O[C@H](CO)[C@@H](O)[C@H](N)[C@H]1O [AK, amikacin]",
    "MEASURED": 11
  },
  {
    "MOLECULE": "NC[C@H]1O[C@H](O[C@H]2[C@H](O)[C@@H](O[C@H]3O[C@H](CO)[C@@H](O)[C@H](N)[C@H]3O)[C@H](N)C[C@@H]2N)[C@H](N)C[C@@H]1O [TB, tobramycin]",
    "MEASURED": 12
  },
  {
    "MOLECULE": "C[C@@H](O)[C@H]1C(=O)N2C(C(=O)O)=C(SCCN=CN)C[C@H]12 [IMP, imipenem]",
    "MEASURED": 12
  }
]

Here is the next item to consider.
Input: Consider the molecule shown here: CC(C)(O/N=C(\C(=O)N[C@@H]1C(=O)N2C(C(=O)[O-])=C(C[n+]3ccccc3)CS[C@H]12)c1csc(N)n1)C(=O)O [CFTZ, ceftazidime] What is its recorded Ps resistance to individual antibiotics and antibiotic combinations, Biofilm?
Output: 12
